B1: Transcription intermediary factor 1-beta, residues 620 to 671; numbered along this chain, Q13263 (parent)
chain: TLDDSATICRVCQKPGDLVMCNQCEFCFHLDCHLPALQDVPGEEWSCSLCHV

Variants of: B1
PROCEDURE_SUMMARY: abundance fitness (aPCA) (normalised: wild type 0, dead -1); higher = more abundant; growth selection in yeast, the domain comes from the species named
RUN_CONDITIONS: Homo sapiens
Entries and their measured abundance fitness follow.

| VARIANT_DESIGNATION | abundance fitness |
| --- | --- |
| D17W | -0.522 |
| L37D | -0.278 |
| T7Y | 0.007 |
| P35H | -0.431 |
| S5M | -0.267 |
| T1S | -0.096 |
| C32L | -0.925 |
| V52L | -0.369 |
| C32G | -0.652 |
| D17V | -0.355 |
| D31H | -0.024 |
| D3L | -0.242 |
| V40N | -0.218 |
| C47L | -0.864 |
| I8M | 0.056 |
| P35T | -0.552 |
| F28G | -0.593 |
| D4M | 0.083 |
| P41G | -0.202 |
| P15E | -0.01 |
| C32H | -0.501 |
| L18K | -0.636 |
